B1: PTPN9 (parent)
chain: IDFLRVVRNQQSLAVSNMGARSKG

# Variants of: B1
# experimentalProtocol: protein stability index of a GFP-peptide fusion (GPS, HEK-293T) (PSI 1-6); higher = more stable;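 note: lentivirally expressed fusions sorted by FACS into six bins by GFP to DsRed ratio, PSI derived from sequencing read proportions per bin multiplied by bin number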
# testSettings: c terminus: a fixed tail appended
measurementName: protein stability index
// print number alone

Before answering, review these 2 worked examples.
>>> observedresult("IDFLRVVRRQQSLAVSNMGARSKG [N9R]")
2.44
>>> observedresult("IDFLRVVRNQQSLAVSNMGARSKL [G24L]")
2.18

Return reported protein stability index; argument: IDFLRVVRNQQSLAVSNMGMRSKG [A20M] 2.32

I would be grateful if you could share the reported protein stability index for IDFLRVVRNQQSLFVSNMGARSKG [A14F] . 2.23
